tgt: angiotensin II type 1 receptor (Oryctolagus cuniculus)
Construct: By using a specimen of isolated rabbit blood vessels
Sequence (P34976 whole entry): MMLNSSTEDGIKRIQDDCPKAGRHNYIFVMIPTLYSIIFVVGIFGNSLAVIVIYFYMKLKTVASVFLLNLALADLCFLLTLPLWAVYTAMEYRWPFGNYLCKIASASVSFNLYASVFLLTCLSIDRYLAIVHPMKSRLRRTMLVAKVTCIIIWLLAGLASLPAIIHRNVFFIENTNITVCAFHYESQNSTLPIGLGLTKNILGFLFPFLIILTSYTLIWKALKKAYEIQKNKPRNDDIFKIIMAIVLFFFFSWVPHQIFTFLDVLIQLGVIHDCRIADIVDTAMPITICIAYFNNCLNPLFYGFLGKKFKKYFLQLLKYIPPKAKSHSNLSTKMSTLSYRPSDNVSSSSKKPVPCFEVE
assay_explanation: Angiotensin II antagonistic activity in isolated rabbit blood vessels
conditions_used: angiotensin II (10 nM)-induced contraction of rabbit thoracic aorta ring
Task for the reader: assign each of the following molecules its reported IC50.
In your response, the unit should come after the numeric value.

Illustrative cases are given below, each with its answer.
# molecule, tgt, measured_quantity, result
data = [
    ("CCCCc1nc(C)n(-c2nccs2)c(=O)c1Cc1ccc(-c2ccccc2-c2nnn[nH]2)cc1 [Example 62]", "angiotensin II type 1 receptor (Oryctolagus cuniculus)", "IC50", "435 nM"),
    ("CCCCc1nc(C)n(-c2ncc(OCC(=O)NCC)cn2)c(=O)c1Cc1ccc(-c2ccccc2-c2nnn[nH]2)cc1 [Example 40]", "angiotensin II type 1 receptor (Oryctolagus cuniculus)", "IC50", "5.9 nM"),
    ("CCCCc1nc(C)n(-c2ncc(OCCC)cn2)c(=O)c1Cc1ccc(-c2ccccc2-c2nnn[nH]2)cc1 [Example 22]", "angiotensin II type 1 receptor (Oryctolagus cuniculus)", "IC50", "155 nM"),
]

Form field IC50 for item CCCCc1nc(C)n(-c2ncc(OCC(=O)O)cn2)c(=O)c1Cc1ccc(-c2ccccc2-c2nnn[nH]2)cc1 [Example 38] on angiotensin II type 1 receptor (Oryctolagus cuniculus): 6.5 nM
